Reference source: patent US20220233706A1

system tested: T1, HER2 immobilised on a Biacore chip (UniProt P04626 23-652, limits assumed)
T1 construct: also called immobilised HER2 target antigen (Biacore SPR); HER2 chip
experiment: Biacore SPR, HER2 amine-coupled to the chip
# key: entry, value: koff
Output spec: scalar in s⁻¹, unitless text.

Worked cases, answers included:
binder	koff (s⁻¹)
scFv (TCT1067)-P5-C5 DAR 10.9 (scFv, P5-C5 on lysine residues; DAR 10.4 by AAA, 11.7 by MS, overall average 10.9, also called TCT1067-P5C5 ADC 1; compound 71) scFv: SGSGGSGQVQLVQSGAEVKKPGESLKISCKGSGYSFTSYWIAWVRQMPGKGLEYMGLIYPGDSDTKYSPSFQGQVTISVDKSVSTAYLQWSSLKPSDSAVYFCARHDVGYCTDRTCAAWPEWLGVWGQGTLVTVSSGGGGSGGGGSGGGGSQSVLTQPPSVSAAPGQKVTISCSGSSSNIGNNYVSWYQQLPGTAPKLLIYGHTNRPAGVPDRFSGSKSGTSASLAISGFRSEDEADYYCASWDYTLSGWVFGGGTKLTVLMASMTGGQQMG	7.13e-05
scFv (TCT1067)-Auristatin-F-C5 DAR 11.9 (scFv, Auristatin F-C5 on lysine residues; DAR 13.4 by AAA, 10.4 by MS, average 11.9, also called TCT1067-AF-C5 ADC 3) scFv: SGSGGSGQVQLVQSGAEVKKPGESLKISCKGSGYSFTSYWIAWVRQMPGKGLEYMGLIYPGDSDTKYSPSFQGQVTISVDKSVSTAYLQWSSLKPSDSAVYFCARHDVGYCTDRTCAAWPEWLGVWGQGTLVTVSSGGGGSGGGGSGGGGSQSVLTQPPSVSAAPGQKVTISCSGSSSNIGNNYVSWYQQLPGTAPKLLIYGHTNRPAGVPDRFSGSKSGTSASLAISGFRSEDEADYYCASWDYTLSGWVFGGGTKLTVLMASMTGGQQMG	1.76e-05
scFv (TCT)-Acetate DAR 15 (scFv, acetyl groups (from Acetate-NHS) on lysines, N-terminal amine and further residues, 15 additions by LC-MS, also called TCT-acetate conjugate 1) scFv: SGSGGSGQVQLVQSGAEVKKPGESLKISCKGSGYSFTSYWIAWVRQMPGKGLEYMGLIYPGDSDTKYSPSFQGQVTISVDKSVSTAYLQWSSLKPSDSAVYFCARHDVGYCSSSNCAAWPEYFQHWGQGTLVTVSSGGGGSGGGGSGGGGSQSVLTQPPSVSAAPGQKVTISCSGSSSNIGNNYVSWYQQLPGTAPKLLIYGHTNRPAGVPDRFSGSKSGTSASLAISGFRSEDEADYYCAAWDDSLSGWVFGGGTKLTVLMASMTGGQQMG	0.0171

[in] Quick one: koff for scFv (TCT) (scFv, Anti-HER2 C6.5 scFv with residual Ser, GSGGSG linker and C-terminal T7 tag; also called cleaved TCT; unmodified scFv (TCT)) scFv: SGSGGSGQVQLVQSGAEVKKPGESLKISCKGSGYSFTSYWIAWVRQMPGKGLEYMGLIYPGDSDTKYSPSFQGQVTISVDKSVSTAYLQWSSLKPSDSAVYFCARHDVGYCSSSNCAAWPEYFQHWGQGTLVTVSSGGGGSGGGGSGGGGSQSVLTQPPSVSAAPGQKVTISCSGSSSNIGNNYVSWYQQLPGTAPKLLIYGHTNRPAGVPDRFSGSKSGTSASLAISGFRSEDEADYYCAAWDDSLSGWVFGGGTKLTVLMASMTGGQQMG ?
[out] 0.00417
